Test system: rodent lifetime carcinogenesis bioassay, tumor incidence TD50
ASSAY_METHOD_TEXT: carcinogenic potency in animals, long-term in vivo studies, CPDB compilation (AID 1745844)
TEST_CONDITIONS: rat; strain Osborne-Mendel; males; in drinking water; site: liver; lesion: hepatocellular adenoma + hepatocellular carcinoma + neoplastic nodule; dosed 110 weeks; study length 110 weeks
ENDPOINT_NAME: TD50 (mg/kg/day)
Quick reminder: number only, in mg/kg/day, skip the unit.

C1COCCO1 has a reported TD50 of 796

====

Tested on: rodent lifetime carcinogenesis bioassay, tumor incidence TD50
ASSAY_METHOD_TEXT: carcinogenic potency in animals, long-term in vivo studies, CPDB compilation (AID 1745844)
TEST_CONDITIONS: mouse; strain BDF1; males; inhaled; site: forestomach; lesion: squamous-cell papilloma; dosed 104 weeks; study length 104 weeks
ENDPOINT_NAME: TD50

C=C(C)CCl has a reported TD50 of 2040 mg/kg/day

====

Test system: rodent lifetime carcinogenesis bioassay, tumor incidence TD50
ASSAY_METHOD_TEXT: carcinogenic potency in animals, long-term in vivo studies, CPDB compilation (AID 1745844)
TEST_CONDITIONS: rat; strain Fischer 344; males; inhaled; site: kidney; lesion: tubular-cell adenoma + tubular-cell adenocarcinoma; dosed 103 weeks; study length 104 weeks
ENDPOINT_NAME: TD50

ClC(Cl)=C(Cl)Cl has a reported TD50 of 504 mg/kg/day

====

System: rodent lifetime carcinogenesis bioassay, tumor incidence TD50
ASSAY_METHOD_TEXT: carcinogenic potency in animals, long-term in vivo studies, CPDB compilation (AID 1745844)
TEST_CONDITIONS: mouse; strain Slc:ddY; females; in feed; site: liver; lesion: hepatocellular adenoma; dosed 78 weeks; study length 78 weeks
ENDPOINT_NAME: TD50 (mg/kg/day)
Quick reminder: number only, in mg/kg/day, skip the unit.

Entry O=P(OCCCl)(OCCCl)OCCCl under rodent lifetime carcinogenesis bioassay, tumor incidence TD50 had TD50 of 23000

====

System: rodent lifetime carcinogenesis bioassay, tumor incidence TD50
ASSAY_METHOD_TEXT: carcinogenic potency in animals, long-term in vivo studies, CPDB compilation (AID 1745844)
TEST_CONDITIONS: rat; strain Wistar-random; females; inhaled; site: nasal mucosa; lesion: adenocarcinoma; dosed 50 weeks; study length 105 weeks
ENDPOINT_NAME: TD50

Entry CC=O under rodent lifetime carcinogenesis bioassay, tumor incidence TD50 had TD50 of 201 mg/kg/day

====

Tested on: rodent lifetime carcinogenesis bioassay, tumor incidence TD50
ASSAY_METHOD_TEXT: carcinogenic potency in animals, long-term in vivo studies, CPDB compilation (AID 1745844)
TEST_CONDITIONS: rat; strain Osborne-Mendel; both sexes; by gavage; site: all sites; lesion: lymphosarcoma; dosed 85 weeks; study length 104 weeks
Activity calls are given as the source filed them. The rule behind the calls is not given here.
ENDPOINT_NAME: TD50

O=C1OC2(c3ccccc31)c1cc(I)c(O)c(I)c1Oc1c2cc(I)c(O)c1I has a reported TD50 of 122 mg/kg/day (inactive)

====

Test system: rodent lifetime carcinogenesis bioassay, tumor incidence TD50
ASSAY_METHOD_TEXT: carcinogenic potency in animals, long-term in vivo studies, CPDB compilation (AID 1745844)
TEST_CONDITIONS: mouse; strain BALB/cStCrlfC3Hf/Nctr; females; in drinking water; site: lung; lesion: several types; types named in the paper; dosed 78 weeks; study length 78 weeks
ENDPOINT_NAME: TD50
# number then unit; no other words

Cc1cc(-c2ccc(N)c(C)c2)ccc1N has a reported TD50 of 295 mg/kg/day

====

System: rodent lifetime carcinogenesis bioassay, tumor incidence TD50
ASSAY_METHOD_TEXT: carcinogenic potency in animals, long-term in vivo studies, CPDB compilation (AID 1745844)
TEST_CONDITIONS: rat; strain F344/DuCrj; females; in drinking water; site: uterus; lesion: endometrial stromal polyp; dosed 103 weeks; study length 111 weeks
ENDPOINT_NAME: TD50 (mg/kg/day)
Quick reminder: number only, in mg/kg/day, skip the unit.

CCN(N=O)C(N)=O has a reported TD50 of 0.883

====

Test system: rodent lifetime carcinogenesis bioassay, tumor incidence TD50
ASSAY_METHOD_TEXT: carcinogenic potency in animals, long-term in vivo studies, CPDB compilation (AID 1745844)
TEST_CONDITIONS: rat; strain Fischer 344; females; inhaled; site: liver; lesion: hepatocellular carcinoma; dosed 104 weeks; study length 104 weeks
ENDPOINT_NAME: TD50

C=CCl has a reported TD50 of 77.2 mg/kg/day

====

Test system: rodent lifetime carcinogenesis bioassay, tumor incidence TD50
ASSAY_METHOD_TEXT: carcinogenic potency in animals, long-term in vivo studies, CPDB compilation (AID 1745844)
TEST_CONDITIONS: rat; strain Fischer 344; females; inhaled; site: lung; lesion: bronchiolar adenoma; dosed 52 weeks; study length 130 weeks
ENDPOINT_NAME: TD50

NN has a reported TD50 of 26.4 mg/kg/day

====

System: rodent lifetime carcinogenesis bioassay, tumor incidence TD50
ASSAY_METHOD_TEXT: carcinogenic potency in animals, long-term in vivo studies, CPDB compilation (AID 1745844)
TEST_CONDITIONS: rat; strain Sprague-Dawley; males; by gavage; site: nasal cavity; lesion: several types; types named in the paper; dosed 26 weeks; study length 77 weeks
ENDPOINT_NAME: TD50

Entry CCCN=[N+]([O-])CCC under rodent lifetime carcinogenesis bioassay, tumor incidence TD50 had TD50 of 0.000596 mg/kg/day

====

Test system: rodent lifetime carcinogenesis bioassay, tumor incidence TD50
ASSAY_METHOD_TEXT: carcinogenic potency in animals, long-term in vivo studies, CPDB compilation (AID 1745844)
TEST_CONDITIONS: mouse; strain B6C3F1; males; inhaled; site: liver; lesion: hepatocellular adenoma + hepatoblastoma + hepatocellular carcinoma; dosed 52 weeks; study length 104 weeks
ENDPOINT_NAME: TD50 (mg/kg/day)
Quick reminder: number only, in mg/kg/day, skip the unit.

C=CC=C has a reported TD50 of 13.8

====

Tested on: rodent lifetime carcinogenesis bioassay, tumor incidence TD50
ASSAY_METHOD_TEXT: carcinogenic potency in animals, long-term in vivo studies, CPDB compilation (AID 1745844)
TEST_CONDITIONS: rat; strain Fischer 344; females; in feed; site: liver; lesion: hepatocellular adenoma; dosed 105 weeks; study length 105 weeks
ENDPOINT_NAME: TD50 (mg/kg/day)
Quick reminder: number only, in mg/kg/day, skip the unit.

Cc1ncc[nH]1 has a reported TD50 of 2000

====

System: rodent lifetime carcinogenesis bioassay, tumor incidence TD50
ASSAY_METHOD_TEXT: carcinogenic potency in animals, long-term in vivo studies, CPDB compilation (AID 1745844)
TEST_CONDITIONS: rat; strain Fischer 344; males; in drinking water; site: palate + pharynx + tongue; lesion: squamous-cell papilloma + squamous-cell carcinoma; dosed 97 weeks; study length 97 weeks
ENDPOINT_NAME: TD50

Entry COc1cc(-c2ccc(N=Nc3c(S(=O)(=O)O)cc4cc(S(=O)(=O)O)cc(N)c4c3O)c(OC)c2)ccc1N=Nc1c(S(=O)(=O)O)cc2cc(S(=O)(=O)O)cc(N)c2c1O under rodent lifetime carcinogenesis bioassay, tumor incidence TD50 had TD50 of 39.3 mg/kg/day

====

Test system: rodent lifetime carcinogenesis bioassay, tumor incidence TD50
ASSAY_METHOD_TEXT: carcinogenic potency in animals, long-term in vivo studies, CPDB compilation (AID 1745844)
TEST_CONDITIONS: mouse; strain A/JJms; males; in feed; site: liver; lesion: several types; types named in the paper; dosed 68 weeks; study length 68 weeks
ENDPOINT_NAME: TD50

CC(=O)N[C@@H](CC(C)C)C(=O)N[C@@H](CC(C)C)C(=O)NC(C=O)CCCN=C(N)N (stereo partly specified) has a reported TD50 of 55.8 mg/kg/day

====

Tested on: rodent lifetime carcinogenesis bioassay, tumor incidence TD50
ASSAY_METHOD_TEXT: carcinogenic potency in animals, long-term in vivo studies, CPDB compilation (AID 1745844)
TEST_CONDITIONS: rat; strain Alpk:APfSD; males; in feed; site: liver; lesion: hepatocellular adenoma; dosed 104 weeks; study length 104 weeks
ENDPOINT_NAME: TD50 (mg/kg/day)
Quick reminder: number only, in mg/kg/day, skip the unit.

[[record]]
structure_notation = "CC(C)(OCc1ccc(-c2ccc(Cl)cc2)cc1)C(=O)O"
system_tested = "rodent lifetime carcinogenesis bioassay, tumor incidence TD50"
endpoint_name = "TD50"
numeric_result = 62.5


COC(=O)C(C)(C)Oc1ccc(-c2ccc(Cl)cc2)cc1 has a reported TD50 of 17.4

====

Tested on: rodent lifetime carcinogenesis bioassay, tumor incidence TD50
ASSAY_METHOD_TEXT: carcinogenic potency in animals, long-term in vivo studies, CPDB compilation (AID 1745844)
TEST_CONDITIONS: rat; strain Fischer 344; males; inhaled; site: adrenal gland; lesion: pheochromocytoma; dosed 101 weeks; study length 104 weeks
ENDPOINT_NAME: TD50

CC1CO1 (stereo unspecified) has a reported TD50 of 35.1 mg/kg/day
